# measured.target: PI3Kalpha (Homo sapiens (Human))
# Sequence (P42336 whole entry, looked up): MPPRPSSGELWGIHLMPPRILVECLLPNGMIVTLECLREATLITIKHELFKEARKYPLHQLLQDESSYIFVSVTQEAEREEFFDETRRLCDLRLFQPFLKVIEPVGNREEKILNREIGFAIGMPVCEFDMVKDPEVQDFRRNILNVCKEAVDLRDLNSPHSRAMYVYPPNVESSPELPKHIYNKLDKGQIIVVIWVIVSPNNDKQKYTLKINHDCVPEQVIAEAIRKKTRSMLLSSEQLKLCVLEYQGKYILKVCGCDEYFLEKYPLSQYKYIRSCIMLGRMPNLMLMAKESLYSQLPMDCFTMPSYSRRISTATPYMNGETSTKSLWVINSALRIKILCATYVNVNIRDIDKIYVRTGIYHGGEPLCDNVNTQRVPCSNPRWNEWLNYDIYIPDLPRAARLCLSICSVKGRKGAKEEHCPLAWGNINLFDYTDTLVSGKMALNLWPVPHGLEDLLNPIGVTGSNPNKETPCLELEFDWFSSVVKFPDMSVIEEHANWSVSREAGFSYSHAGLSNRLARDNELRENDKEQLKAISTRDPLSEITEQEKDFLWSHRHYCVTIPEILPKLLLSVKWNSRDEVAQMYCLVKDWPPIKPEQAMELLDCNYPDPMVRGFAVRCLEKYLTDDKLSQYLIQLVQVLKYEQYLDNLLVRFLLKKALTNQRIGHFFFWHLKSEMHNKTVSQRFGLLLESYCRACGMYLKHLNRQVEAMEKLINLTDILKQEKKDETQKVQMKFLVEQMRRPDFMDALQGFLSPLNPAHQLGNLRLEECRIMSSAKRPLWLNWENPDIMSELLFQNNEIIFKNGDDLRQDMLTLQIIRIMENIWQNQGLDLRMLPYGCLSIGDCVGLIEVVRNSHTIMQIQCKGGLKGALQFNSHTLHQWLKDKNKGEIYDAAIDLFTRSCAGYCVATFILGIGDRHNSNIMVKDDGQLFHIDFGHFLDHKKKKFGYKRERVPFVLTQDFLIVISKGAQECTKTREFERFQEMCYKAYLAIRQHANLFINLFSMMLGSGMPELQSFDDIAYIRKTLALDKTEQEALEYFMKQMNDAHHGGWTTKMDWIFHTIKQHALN
pIC50: −log10 of the molar value.
readout.kind: pIC50

>  <molecule>
CCc1ncnc(-c2ccc(C(=O)N3CCC(N4CCOCC4)CC3)c(Cl)c2)c1C#Cc1ccc(NC)nc1 [Example E-185]

>  <value.observed>
6.70

$$$$
>  <molecule>
CCc1ncnc(-c2ccc(C(=O)N3CCN(C(C)COC)CC3)c(F)c2)c1C#Cc1ccc(N)nc1 (stereo not shown) [Example E-291]

>  <value.observed>
6.66

$$$$
>  <molecule>
CCc1ncnc(-c2ccc(C(=O)N3CCC(N4CCN(C)CC4)CC3)c(F)c2)c1C#Cc1ccc(NC)nc1 [Example E-183]

>  <value.observed>
6.51

$$$$
>  <molecule>
CCOC(=O)N1CCN(C(=O)c2ccc(-c3ncnc(CC)c3C#Cc3ccc(N)nc3)cc2OC)CC1 [Example E-62]

>  <value.observed>
6.61

$$$$
>  <molecule>
CCc1ncnc(-c2cc(Cl)c(C(=O)N3CCC(C)(O)CC3)c(Cl)c2)c1C#Cc1ccc(N)nc1 [Example E-203]

>  <value.observed>
7.02

$$$$
>  <molecule>
CCc1ncnc(-c2cc(F)c(C(=O)N3CC4(CN(C)C4)C3)c(Cl)c2)c1C#Cc1ccc(N)nc1 [Example E-289]

>  <value.observed>
6.53

$$$$
>  <molecule>
CCc1ncnc(-c2ccc(C(=O)N3CCC4(CCN(C)CC4)CC3)c(Cl)c2)c1C#Cc1ccc(N)nc1 [Example E-26]

>  <value.observed>
6.30

$$$$
